# tgt: MDR-1 (Homo sapiens, UniProt P08183)
# Sequence (P08183 whole entry): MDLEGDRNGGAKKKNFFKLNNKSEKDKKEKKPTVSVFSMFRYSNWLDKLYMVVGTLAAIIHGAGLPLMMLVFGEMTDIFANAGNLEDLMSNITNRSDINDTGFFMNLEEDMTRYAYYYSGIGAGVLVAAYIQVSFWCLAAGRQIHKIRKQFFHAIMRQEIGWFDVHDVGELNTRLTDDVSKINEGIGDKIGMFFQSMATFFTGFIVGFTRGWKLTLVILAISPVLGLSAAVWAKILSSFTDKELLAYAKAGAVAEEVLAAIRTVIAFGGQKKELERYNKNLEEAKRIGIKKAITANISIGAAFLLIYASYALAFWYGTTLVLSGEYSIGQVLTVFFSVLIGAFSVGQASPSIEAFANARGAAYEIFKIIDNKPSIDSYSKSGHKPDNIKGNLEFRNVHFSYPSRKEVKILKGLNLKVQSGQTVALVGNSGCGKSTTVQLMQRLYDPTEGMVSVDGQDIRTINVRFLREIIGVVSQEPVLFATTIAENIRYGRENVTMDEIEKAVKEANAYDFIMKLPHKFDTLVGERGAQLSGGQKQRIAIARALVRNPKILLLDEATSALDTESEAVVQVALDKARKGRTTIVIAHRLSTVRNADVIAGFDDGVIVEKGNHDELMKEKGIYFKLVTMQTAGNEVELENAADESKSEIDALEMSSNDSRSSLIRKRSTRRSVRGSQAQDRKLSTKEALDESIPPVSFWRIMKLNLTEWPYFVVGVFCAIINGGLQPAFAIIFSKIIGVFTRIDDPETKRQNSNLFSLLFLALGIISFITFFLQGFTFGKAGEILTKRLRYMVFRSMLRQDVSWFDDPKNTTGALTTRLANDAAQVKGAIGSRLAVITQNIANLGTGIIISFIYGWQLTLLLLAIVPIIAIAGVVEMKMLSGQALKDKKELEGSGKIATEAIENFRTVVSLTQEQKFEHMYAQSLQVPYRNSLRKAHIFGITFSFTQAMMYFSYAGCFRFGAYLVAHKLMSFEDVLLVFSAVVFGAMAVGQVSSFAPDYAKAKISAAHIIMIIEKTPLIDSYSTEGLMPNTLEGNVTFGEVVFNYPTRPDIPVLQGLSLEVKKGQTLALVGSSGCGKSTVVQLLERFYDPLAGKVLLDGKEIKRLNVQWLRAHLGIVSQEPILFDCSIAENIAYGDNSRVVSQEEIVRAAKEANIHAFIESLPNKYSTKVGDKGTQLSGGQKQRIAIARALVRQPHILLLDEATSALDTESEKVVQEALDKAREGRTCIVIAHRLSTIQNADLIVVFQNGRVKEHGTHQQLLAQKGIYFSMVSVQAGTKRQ
# measurementNotes: clinical
# Parameters: from tissue; host or cells: colon (intestine) of human probands, in vivo
# conditionInfo: in vivo, po, 1 mg, digoxin concentration in blood (Dig AUC)
measuredQuantity: AUC
Kindly write the number and append the unit.

Supply recorded AUC for C[C@H]1O[C@@H](O[C@H]2[C@@H](O)C[C@H](O[C@H]3[C@@H](O)C[C@H](O[C@H]4CC[C@@]5(C)[C@H](CC[C@@H]6[C@@H]5C[C@@H](O)[C@]5(C)[C@@H](C7=CC(=O)OC7)CC[C@]65O)C4)O[C@@H]3C)O[C@@H]2C)C[C@H](O)[C@@H]1O [digoxin] here.
63.6 ng·h/mL

The values you see were collected from patent US20050227249A1.
